Give pKd for every item shown.
- Tested on: full length human vWF (SEQ ID NO 7)
- TEST DESCRIPTION: dot blot KD determination and extent of binding, full length human vWF;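 also: dot blot binding of aptamers to full length human vWF across a protein titration, incubated 30 minutes at room temperature in 1x DPBS with BSA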
- CONDITION: Phase 1 modification; full length human vWF, dot blot, 8 point protein titration; read-out: KD
Oligonucleotides are written 5' to 3', each unit as a sugar letter and its base; * is a phosphorothioate linkage, no mark a phosphodiester; rarer units and linkages stand in square brackets, end groups in braces. Plain capitals give the bases only. [invdT] = inverted (3'-3') thymidine; d = 2'-deoxy (DNA); m = 2'-O-methyl
Reminder that pKd means the negative base-10 logarithm of the concentration expressed in mol/L.

Retrieve pKd measured for ARC1236: ARC1172 with composite 2'-O methyl replacements in the stem regions (dGdGmCdGmUdGdCdAdGdTdGdCdCdTdTdCdGdGdCdCdGdTdGdCdGdGdTdGdCdCdTdCdCdGdTmCdAmCdGmCmC[invdT]; aptamer) and print it.
8.52

Retrieve pKd measured for ARC1226: ARC1172 with one residue replaced by 2'-O methyl residue (dGdGdCdGdTdGdCdAdGdTdGdCdCdTdTdCdGdGdCdCdGdTdGdCdGdGdTdGdCdCdTdCmCdGdTdCdAdCdGdCdC[invdT]; aptamer) and print it.
7.92
